Recorded values, source ChEMBL document CHEMBL1165965.

study-target: Uncharacterized serine/threonine-protein kinase SBK3 (Homo sapiens) (UniProt P0C264)
Sequence (whole entry): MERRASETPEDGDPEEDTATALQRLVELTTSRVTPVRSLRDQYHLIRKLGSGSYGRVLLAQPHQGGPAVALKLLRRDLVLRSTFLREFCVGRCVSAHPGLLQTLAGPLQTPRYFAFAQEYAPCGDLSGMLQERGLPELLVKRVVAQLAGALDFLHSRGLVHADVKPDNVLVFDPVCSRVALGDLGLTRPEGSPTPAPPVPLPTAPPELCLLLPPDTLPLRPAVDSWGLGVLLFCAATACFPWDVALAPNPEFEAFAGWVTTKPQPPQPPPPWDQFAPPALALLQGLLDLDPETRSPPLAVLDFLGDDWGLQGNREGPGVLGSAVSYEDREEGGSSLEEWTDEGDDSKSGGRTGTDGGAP
assay-protocol: Inhibition of SgK110 at 1 uM
Catalogue of inhibition values

Use the examples below as a reference point.
1. FC(F)(F)c1ccc(Cl)cc1CN1CCNc2ncc(-c3ccnc(N4CCNCC4)c3)cc21	96%
2. CN1CCN(c2ccc(-c3cnc4c(c3)N(Cc3c(F)ccc(F)c3Cl)CCN4)cn2)CC1	< 50%
3. CN1CCN(c2ccc(-c3cnc4c(c3)N(Cc3cc(Cl)ccc3C(F)(F)F)CCN4)cn2)CC1	< 50%
4. CN1CCN(c2ccc(-c3cnc4c(c3)N(Cc3cc(Cl)ccc3Cl)CCN4)cn2)CC1	< 50%
5. CC(=O)N1CCN(c2cc(-c3cnc4c(c3)N(Cc3cc(Cl)ccc3C(F)(F)F)CCN4)ccn2)CC1	71%

Look up inhibition for this compound: `CN1CCN(c2ccc(-c3cnc4c(c3)N(Cc3cc(F)ccc3F)CCN4)cn2)CC1`
< 50%
